- Tested on: Colletotrichum camelliae
- Assay summary: Antifungal activity against Colletotrichum camelliae assessed as inhibition of mycelial growth at 2000 ug/mL measured after 5 days of cultivation
- Assay type: functional
- Conditions used: 120 h, read-out: GI
Documented inhibition of growth at 2000 µg/mL across a set of molecules
Express it in %; write the number only.

Observe how each entry below is paired with its result.
- Molecule: "COC(=O)c1ccccc1O [METHYL SALICYLATE]"
  Target system: "Colletotrichum camelliae"
  inhibition of growth at 2000 µg/mL / %: 100
- Molecule: "C=CC(C)(O)CCC=C(C)C (stereo not drawn) [LINALOOL]"
  Target system: "Colletotrichum camelliae"
  inhibition of growth at 2000 µg/mL / %: 100
- Molecule: "C=C[C@]1(C)CC[C@@H](C(C)(C)O)O1 [(E)-LINALOOL OXIDE]"
  Target system: "Colletotrichum camelliae"
  inhibition of growth at 2000 µg/mL / %: 57.4
- Molecule: "OCc1ccccc1 [BENZYL ALCOHOL]"
  Target system: "Colletotrichum camelliae"
  inhibition of growth at 2000 µg/mL / %: 83.3
- Molecule: "C=C[C@]1(C)CC[C@H](C(C)(C)O)O1 [CIS-FURANOID]"
  Target system: "Colletotrichum camelliae"
  inhibition of growth at 2000 µg/mL / %: 57.4

QUERY: Lab note: need inhibition of growth at 2000 µg/mL for CC(C)=CCC/C(C)=C/CO [GERANIOL] on Colletotrichum camelliae, anyone have it?
RESULT: 100

QUERY: Also CC/C=C\CCO [CIS-3-HEXENOL] , if possible.
RESULT: 79.6

QUERY: OCCc1ccccc1 [PHENYLETHYL ALCOHOL] ?
RESULT: 92.6

Data credit: ChEMBL document CHEMBL3045126
